inhibition listing for selected compounds.
# test system: Protein deacetylase HDAC6 (Homo sapiens) (UniProt Q9UBN7)
# Sequence (whole entry): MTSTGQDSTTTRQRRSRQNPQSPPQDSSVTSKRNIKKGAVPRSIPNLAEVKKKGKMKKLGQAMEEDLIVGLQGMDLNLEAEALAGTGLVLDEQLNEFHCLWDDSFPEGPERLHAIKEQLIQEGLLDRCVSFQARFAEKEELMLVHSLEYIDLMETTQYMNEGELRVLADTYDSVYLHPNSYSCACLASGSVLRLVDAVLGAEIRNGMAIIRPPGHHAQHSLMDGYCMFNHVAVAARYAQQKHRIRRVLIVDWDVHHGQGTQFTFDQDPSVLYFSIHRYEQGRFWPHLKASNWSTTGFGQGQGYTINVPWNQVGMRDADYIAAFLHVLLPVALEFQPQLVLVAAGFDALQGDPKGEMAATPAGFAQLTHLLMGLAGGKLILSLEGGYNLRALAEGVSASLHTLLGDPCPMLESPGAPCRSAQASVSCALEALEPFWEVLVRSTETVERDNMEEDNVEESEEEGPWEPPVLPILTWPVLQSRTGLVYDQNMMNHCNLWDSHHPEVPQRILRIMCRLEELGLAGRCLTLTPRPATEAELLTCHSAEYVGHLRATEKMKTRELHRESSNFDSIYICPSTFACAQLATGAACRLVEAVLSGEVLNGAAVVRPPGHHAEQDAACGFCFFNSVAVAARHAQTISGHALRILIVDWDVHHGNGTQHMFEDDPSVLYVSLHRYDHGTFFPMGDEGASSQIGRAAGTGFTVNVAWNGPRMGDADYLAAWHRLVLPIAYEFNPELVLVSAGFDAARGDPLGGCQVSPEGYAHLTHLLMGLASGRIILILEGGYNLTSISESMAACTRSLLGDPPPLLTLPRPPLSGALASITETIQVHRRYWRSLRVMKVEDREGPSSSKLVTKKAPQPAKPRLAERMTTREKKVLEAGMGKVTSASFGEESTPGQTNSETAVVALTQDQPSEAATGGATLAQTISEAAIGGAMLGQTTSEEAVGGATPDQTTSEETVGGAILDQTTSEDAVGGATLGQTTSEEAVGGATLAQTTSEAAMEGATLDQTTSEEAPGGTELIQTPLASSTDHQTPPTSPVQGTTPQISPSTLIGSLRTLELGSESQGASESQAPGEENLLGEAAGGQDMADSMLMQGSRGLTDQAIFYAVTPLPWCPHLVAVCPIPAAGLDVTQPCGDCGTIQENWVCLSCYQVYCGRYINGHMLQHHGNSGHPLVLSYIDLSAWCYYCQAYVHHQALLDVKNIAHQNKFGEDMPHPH
# applied conditions: at 10 µM
In all, about 5,600 compounds went through this assay and about 150 (2.7%) showed an effect of 50% or more. The sample holds strong results, similar compounds and a random draw of the others, so the mix is not that of the screen.
property: inhibition (%)

compound: CCCC[C@@H](NC(=O)[C@@H](Cc1cn(C(=O)OC)c2ccccc12)NC(=O)[C@H](CC(C)(C)C)NC(=O)N1[C@H](C)CCC[C@@H]1C)C(=O)O
test system: Protein deacetylase HDAC6 (Homo sapiens) (UniProt Q9UBN7)
units text: %
val: -9.33
--
compound: CCCCC1OC(=O)c2ccccc21 (stereo not drawn)
test system: Protein deacetylase HDAC6 (Homo sapiens) (UniProt Q9UBN7)
units text: %
val: 4.45
--
compound: COc1cccc(OC)c1-c1cc(C(=O)NC2(C(=O)O)C3CC4CC(C3)CC2C4)nn1-c1ccnc2cc(Cl)ccc12 (stereo not drawn)
test system: Protein deacetylase HDAC6 (Homo sapiens) (UniProt Q9UBN7)
units text: %
val: 0.43
--
compound: Cc1cc(N2CCOCC2)ccc1Nc1nc(NC2CCCCC2)c2nc[nH]c2n1
test system: Protein deacetylase HDAC6 (Homo sapiens) (UniProt Q9UBN7)
units text: %
val: -0.21
--
compound: O=C(Nc1ccc([N+](=O)[O-])cc1O)Nc1ccccc1Br
test system: Protein deacetylase HDAC6 (Homo sapiens) (UniProt Q9UBN7)
units text: %
val: 61.6
--
compound: C[C@@H]1O[C@@]2(CS1)CN1CCC2CC1.C[C@H]1O[C@]2(CS1)CN1CCC2CC1
test system: Protein deacetylase HDAC6 (Homo sapiens) (UniProt Q9UBN7)
units text: %
val: -5.94
--
compound: COc1ccc(-c2cc(=S)ss2)cc1
test system: Protein deacetylase HDAC6 (Homo sapiens) (UniProt Q9UBN7)
units text: %
val: 67.3
--
compound: COc1cc(C[C@@H](CO[C@@H]2O[C@H](CO)[C@@H](O)[C@H](O)[C@H]2O)[C@H](CO[C@@H]2O[C@H](CO)[C@@H](O)[C@H](O)[C@H]2O)Cc2ccc(O)c(OC)c2)ccc1O
test system: Protein deacetylase HDAC6 (Homo sapiens) (UniProt Q9UBN7)
units text: %
val: -3.26
